Values from a collection of fitness landscapes (doi:10.1016/j.celrep.2020.107928)

B1: Caulobacter ParB omega fusion; a variant is named by its letters at X, in order, B8GW30 (parent)
chain: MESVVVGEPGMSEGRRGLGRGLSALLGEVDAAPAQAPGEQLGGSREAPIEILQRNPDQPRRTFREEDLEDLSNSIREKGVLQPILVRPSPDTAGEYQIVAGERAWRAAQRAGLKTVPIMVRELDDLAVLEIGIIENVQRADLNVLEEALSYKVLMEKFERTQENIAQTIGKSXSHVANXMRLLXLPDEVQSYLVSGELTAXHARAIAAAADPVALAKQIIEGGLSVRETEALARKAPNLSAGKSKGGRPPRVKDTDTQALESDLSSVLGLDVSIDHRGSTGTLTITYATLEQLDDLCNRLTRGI

variants of: B1; assay: one-hybrid fitness for binding parS DNA (scaled: cognate 1, non-cognate 0); higher = stronger binding; conditions: with parS DNA site
Whole data set: some 81,000 sequences, median “one-hybrid fitness for binding parS DNA” near -0.17, cut for the highest 2% near 0.51. This excerpt belongs to a sample that is enriched for the highest values.
testReadout: one-hybrid fitness for binding parS DNA

Record excerpt, results attached:
# mut, one-hybrid fitness for binding parS DNA
rows = [
    ("LLVS", "≤ 0.2"),
    ("RKNP", "≤ 0.2"),
    ("RYKT", 0.708),
]

Prompt: I'd like to know its one-hybrid fitness for binding parS DNA. The variant in question is `YERV`
Completion: ≤ 0.2

Prompt: Note, next up: `QACE`
Completion: ≤ 0.2
